Target: T1, human amylin receptor 3 (human, UniProt P30988 25-474; O60896 24-148)
T1 construct: whole, on cells; also called AMY3; Human AMY3
T1 sequence (looked up) 1: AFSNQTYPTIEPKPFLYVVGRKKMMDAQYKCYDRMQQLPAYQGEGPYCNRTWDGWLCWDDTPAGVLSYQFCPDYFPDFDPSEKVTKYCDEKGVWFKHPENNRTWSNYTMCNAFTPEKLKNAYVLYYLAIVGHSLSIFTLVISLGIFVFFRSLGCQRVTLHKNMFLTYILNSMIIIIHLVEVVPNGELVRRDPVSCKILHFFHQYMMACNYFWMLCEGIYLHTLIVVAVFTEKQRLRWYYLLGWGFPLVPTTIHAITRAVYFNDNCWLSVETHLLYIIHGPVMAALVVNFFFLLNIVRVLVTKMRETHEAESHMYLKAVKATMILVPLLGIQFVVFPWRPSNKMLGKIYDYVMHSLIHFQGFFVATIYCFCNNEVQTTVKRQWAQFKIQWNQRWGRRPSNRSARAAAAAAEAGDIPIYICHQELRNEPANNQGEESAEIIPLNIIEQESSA
T1 sequence (looked up) 2: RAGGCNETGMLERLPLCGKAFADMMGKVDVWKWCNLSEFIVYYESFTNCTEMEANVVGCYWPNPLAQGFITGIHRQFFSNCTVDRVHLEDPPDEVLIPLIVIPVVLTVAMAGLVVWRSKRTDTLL
Assay: competition with 125I-rat amylin, human AMY3 receptor
Ends that are not written are not given here. mPEG40KD = methoxy-PEG of 40 kDa
Reported endpoint: IC50 (nM)

For orientation, consider the following solved cases.
* CNTATCATQRLANFLVHSSNNFK(mPEG40KD)PILPPTNVGSNTY-NH2 (ends and bridges not checked, also called Cmpd 80) [[K^24(mPEG40KD)]-Cmpd 62] | 111
* CNTATCATQRLANFLVHSSK(mPEG 40 kDa)NFGPILPPTNVGSNTY-NH2 (ends and bridges not checked, also called Cmpd 76) [[K^21(mPEG40KD)]-Cmpd 59] | 388

I. CNTATCATQRLANFLVHSSNNFGPIK(mPEG40KD)PPTNVGSNTY-NH2 (ends and bridges not checked, also called Cmpd 82) [[K^27(mPEG40KD)]-Cmpd 64]
II. CNTATCATQRLANFLVHSSNNFGK(mPEG40KD)ILPPTNVGSNTY-NH2 (ends and bridges not checked, also called Cmpd 81) [[K^25(mPEG40KD)]-Cmpd 63]
Challenge: So which one has the bigger IC50 here, I or II ? Please indicate the selected item by its label.
Response given: I

Source: patent US20140221282A1
